assay: activity coefficient (dimensionless); of the first substance listed, at infinite dilution; xn = mol fraction of the nth substance listed; conditions: 308.15 K; 101 kPa; Liquid; Chromatography; x1 = 0
Each record is given true if its reported activity coefficient is strictly below 1000. Records at or above 1000 are given false.

Worked examples, 5 compounds total:
compound: CCOC(C)(C)CC [1,1-dimethylpropyl ethyl ether] + O
classification: false
--
compound: CCC(C)(C)OC [2-methoxy-2-methylbutane] + O
classification: true
--
compound: c1ccsc1 [thiophene] + O
classification: false
--
compound: CCOC(C)(C)C [2-ethoxy-2-methylpropane] + O
classification: true
--
compound: COC(C)(C)C [2-methoxy-2-methylpropane] + O
classification: true

Qu. Determine whether this compound shows activity coefficient lower than 1000 (ties excluded): CCCCS [1-butanethiol] + O
Ans. false

Qu. Determine whether this compound shows activity coefficient lower than 1000 (ties excluded): CCOC(C)(C)CC(C)(C)C [ethyl 1,1,3,3-tetramethylbutyl ether] + O
Ans. false

Qu. Determine whether this compound shows activity coefficient lower than 1000 (ties excluded): Cc1ccccc1 [toluene] + O
Ans. false

Qu. Determine whether this compound shows activity coefficient lower than 1000 (ties excluded): CC(C)S [2-propanethiol] + O
Ans. false

Qu. Determine whether this compound shows activity coefficient lower than 1000 (ties excluded): CCCS [1-propanethiol] + O
Ans. false
